subject of test: UniProt:P30551
Sequence (P30551 whole entry): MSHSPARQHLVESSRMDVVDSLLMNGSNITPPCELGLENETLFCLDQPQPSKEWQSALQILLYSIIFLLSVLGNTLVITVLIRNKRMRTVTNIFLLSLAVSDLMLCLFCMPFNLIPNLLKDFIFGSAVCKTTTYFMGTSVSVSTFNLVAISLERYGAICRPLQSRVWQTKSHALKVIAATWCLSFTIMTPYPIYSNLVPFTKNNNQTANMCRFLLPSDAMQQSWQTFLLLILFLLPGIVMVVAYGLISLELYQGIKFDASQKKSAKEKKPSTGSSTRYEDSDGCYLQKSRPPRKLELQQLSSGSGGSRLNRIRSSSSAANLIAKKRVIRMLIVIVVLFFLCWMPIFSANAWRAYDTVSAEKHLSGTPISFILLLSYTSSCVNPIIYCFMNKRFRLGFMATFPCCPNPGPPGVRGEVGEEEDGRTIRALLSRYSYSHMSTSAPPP
assay comment: Displacement of [125]I-CCK-8 from CCK-A receptor in rat pancreatic membrane after 2 hrs by gamma counting
experimental endpoint: log10 of IC50 (log10 of the value in nM)

# molecule, recorded result
data = [
    ("CC(C)CN1C(=O)C=C(Cl)C1(O)c1ccccc1 (stereo not given)", 1.30),
    ("CN1C(=O)C=C(Cl)C1(O)c1ccccc1 (stereo not given)", 3.40),
    ("CN1C(=O)C=C(Cl)C1(O)c1ccc(Cl)cc1 (stereo not given)", 3.30),
    ("CC(C)N1C(=O)C=C(Cl)C1(O)c1ccccc1 (stereo not given)", 2.30),
    ("CCCCCN(CCCCC)C(=O)C(CCC(=O)O)NC(=O)c1ccc(Cl)c(Cl)c1 (stereo not given) [LORGLUMIDE SODIUM]", 2.23),
]
